Documented growth across a set of molecules
# Tested on: SNB-19 CNS
# EXPERIMENTAL_DETAILS: NCI-60 one-dose screen, 48 h (100 = growth as untreated, 0 = no growth, -100 = all killed)
# ASSAY_CONTEXT: 10 µM unless noted
The panel holds about 83,000 compounds, 20% with a hit somewhere; the sample as a whole holds those more often.
Your answer is read as %, so omit the unit and give the number.

Provide only the value of recorded growth for COc1ccc(-c2nc(SCCC(C)C)nc(N/N=C\c3ccccc3O)c2C#N)cc1
72.4

Provide only the value of recorded growth for COc1ccc(-c2nc3c(N)c(CO)c(C)nc3o2)cc1
111

Provide only the value of recorded growth for COc1ccc2c(c1)O/C(=C\c1cccc(OCC(=O)Nc3nc4ccccc4s3)c1)C2=O
83.6

Continuing:
Provide only the value of recorded growth for Cc1ccc(-c2cc3c(cc2O)C2CCCCC2(N2CCOCC2)O3)cc1 (stereo not given)
98.7

Provide only the value of recorded growth for O=C1Nc2ccccc2/C1=C/c1cn(C(=O)c2ccc(Cl)cc2)c2ccccc12
99.1

Provide only the value of recorded growth for Cc1ccc(C(=O)C2=C(O)C(=O)N(Cc3cccnc3)C2c2ccccc2F)o1 (stereo not given)
105

Provide only the value of recorded growth for S=C(c1ccc2c(c1)OCO2)N1CCN(c2ccccc2Cl)CC1
99.4

Provide only the value of recorded growth for CCC(CO)Nc1nc2ccc(Cl)cc2c2ccccc12 (stereo not given)
53.8

Provide only the value of recorded growth for COc1ccccc1NC(=O)N/C(N)=N/c1nc2ccccc2s1
37.5

###

# System: BT-549 breast
# EXPERIMENTAL_DETAILS: NCI-60 one-dose screen, 48 h
# ASSAY_CONTEXT: 10 µM unless noted
# Experimental: Growth inhibition of the BT-549 human tumor cell line is measured as a screen for anti-cancer activity. Cells are grown in 96 well plates and exposed to the test compound for 48 hours. Compounds are tested at a single concentration, which is 10^-5 M for most compounds. The reported endpoint is percent growth (GI% or GIPRCNT), where numbers from 0 - 100% represent growth inhibition, and numbers from -100% - 0 represent cell death. For example, a value of 40 represents 60% growth inhibition. […]
The panel holds about 83,000 compounds, 20% with a hit somewhere; the sample as a whole holds those more often. Calls of active or inactive are those of the source. The calls were made as follows: active = growth percent below 10; inactive = the rest.
Write down one outcome, taken from 1 (yes) = active, 0 (no) = inactive

Dear all, I need the recorded test outcome for Cc1ccc(C2SCC(=O)N2Cc2ccccc2)cc1 (centres undefined) , thank you.
0 (no)

Dear all, I need the recorded test outcome for O=C(N/N=C/c1ccncc1)c1ccc(C(F)(F)F)nc1Nc1cccc(C(F)(F)F)c1 , thank you.
0 (no)

Dear all, I need the recorded test outcome for CC1=CN2C(=O)C3C4=C(CCCC4)SC3N=C2CN1c1c(C)cccc1C (centres undefined) , thank you.
0 (no)

Dear all, I need the recorded test outcome for Cn1c(I)c(C#C[Si](C)(C)C)c(=O)n(C(=O)c2ccccc2)c1=O , thank you.
0 (no)

Dear all, I need the recorded test outcome for Cn1cc(-c2csc(-c3cccc(F)c3)n2)c2cccnc21 , thank you.
1 (yes)

Continuing:
Dear all, I need the recorded test outcome for COc1ccc(CN2C(=O)C(Cl)=C(Nc3cccc(C(F)(F)F)c3)C2=O)cc1 , thank you.
0 (no)

Dear all, I need the recorded test outcome for C=C1C(=O)O[C@H]2[C@H]1CC/C(COC(=O)C(=O)c1c[nH]c3ccccc13)=C\CC[C@@]1(C)O[C@@H]21 , thank you.
1 (yes)

Dear all, I need the recorded test outcome for COc1ccc(C2=Nc3c(N)ncnc3NC(c3ccc4c(c3)OCO4)C2)cc1 (centres undefined) , thank you.
0 (no)

Dear all, I need the recorded test outcome for OC(COc1ccccc1Cl)COc1ccccc1Cl , thank you.
0 (no)

Dear all, I need the recorded test outcome for COc1cccc(-c2nn(-c3ccccc3)cc2-c2ccnc(NCCCNC(=O)c3ccc(F)cc3)c2)c1 , thank you.
0 (no)

Dear all, I need the recorded test outcome for CCCc1cc2c(=O)c(C(=O)OC)c[nH]c2cc1N(CC)CC , thank you.
0 (no)

Dear all, I need the recorded test outcome for O=C1Nc2ccccc2/C1=C/c1cn(C(=O)c2ccc(Cl)cc2)c2ccccc12 , thank you.
0 (no)

Dear all, I need the recorded test outcome for NC[C@H](O)c1ccc(O)c(O)c1 , thank you.
0 (no)

Dear all, I need the recorded test outcome for Cc1c(C(=O)N[C@@H](Cc2ccccc2)C(=O)C(=O)NCCc2ccccc2)[nH]c2ccccc2c1=O , thank you.
0 (no)

Value source: PubChem BioAssay (NCI)
